- Tested on: YAP-dependent transcription in SF268-MCAT_Luc_dox-i-shYAPLevy (Clone 13) cells
- measurement_protocol: YAP reporter gene activity assay (MCAT-Luc), SF268
- Assay type: cell-based
- assay_conditions: Homo sapiens, SF-268; SF268 MCAT_Luc, 24 hrs
pIC50: −log10 of the molar value.
parameter_measured: pIC50

In the examples that follow, each entry is paired with its recorded pIC50.
>  <molecule>
COc1ccc(C(N)=O)c(-c2c(Cl)c(F)cc3c2[C@H](C)[C@@](CNCCCCCc2cccc4c2CN(C2CCC(=O)NC2=O)C4=O)(c2ccccc2)O3)c1F (some centres unmarked)

>  <pIC50>
7.64

$$$$
>  <molecule>
COc1ccc(C(=O)N2CCC(CC3CCN(CCNC(=O)[C@H]4CC[C@H](NC[C@]5(c6ccccc6)Oc6cc(F)c(Cl)c(-c7c(C(N)=O)ccc(OC)c7F)c6[C@@H]5C)CC4)CC3)CC2)cc1N1CCC(=O)NC1=O (atropisomer, axis not shown)

>  <pIC50>
9.40

$$$$
>  <molecule>
COc1ccc(C(N)=O)c(-c2c(Cl)c(F)cc3c2[C@H](C)[C@@](CN[C@H]2CC[C@H](C(=O)N4CCC(CC5CCN(C(=O)COc6ccc(N7CCC(=O)NC7=O)cc6)CC5)CC4)CC2)(c2ccccc2)O3)c1F (atropisomer, axis not shown)

>  <pIC50>
9.27

$$$$
>  <molecule>
COc1ccc(C(=O)N2CCC(OC3CCN(CCNC(=O)[C@H]4CC[C@H](NC[C@]5(c6ccccc6)Oc6cc(F)c(Cl)c(-c7c(C(N)=O)ccc(OC)c7F)c6[C@@H]5C)CC4)CC3)CC2)cc1N1CCC(=O)NC1=O (atropisomer, axis not shown)

>  <pIC50>
8.77

$$$$

A. COc1ccc(C(=O)N2CCC3(CCN(CCNC(=O)[C@H]4CC[C@H](NC[C@]5(c6ccccc6)Oc6cc(F)c(Cl)c(-c7c(C(N)=O)ccc(OC)c7F)c6[C@@H]5C)CC4)CC3)CC2)cc1N1CCC(=O)NC1=O (atropisomer, axis not shown)
B. COc1ccc(C(N)=O)c(-c2c(Cl)c(F)cc3c2[C@H](C)[C@@](CN[C@H]2CC[C@H](C(=O)N4CCC(CC5CCN(C(=O)c6ccc(Cl)c(N7CCC(=O)NC7=O)c6)CC5)CC4)CC2)(c2ccccc2)O3)c1F (atropisomer, axis not shown)
Input line: Endpoint returns the identifier whose pIC50 is numerically larger, either A or B . Please respond with the label that marks your chosen entry.
Output line: B
